# credit: patent US8283353B2

Molecular target: human PPARγ (Homo sapiens, UniProt P37231)
Construct: expressed in transfected cells
Sequence (P37231 1-477 isoform P37231-2): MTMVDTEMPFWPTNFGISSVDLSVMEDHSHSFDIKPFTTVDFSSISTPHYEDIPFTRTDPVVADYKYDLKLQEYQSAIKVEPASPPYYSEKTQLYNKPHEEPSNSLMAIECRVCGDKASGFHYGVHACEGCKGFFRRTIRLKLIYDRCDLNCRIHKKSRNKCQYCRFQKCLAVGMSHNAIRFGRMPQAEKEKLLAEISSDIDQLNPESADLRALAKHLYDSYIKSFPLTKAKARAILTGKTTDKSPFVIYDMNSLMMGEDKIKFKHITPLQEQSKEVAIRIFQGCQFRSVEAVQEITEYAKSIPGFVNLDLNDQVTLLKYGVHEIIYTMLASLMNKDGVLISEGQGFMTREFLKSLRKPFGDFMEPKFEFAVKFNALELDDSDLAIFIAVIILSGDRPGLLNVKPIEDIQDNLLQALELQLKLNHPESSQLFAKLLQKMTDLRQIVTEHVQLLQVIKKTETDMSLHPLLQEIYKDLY
Sequence (P19793 1-462 partner): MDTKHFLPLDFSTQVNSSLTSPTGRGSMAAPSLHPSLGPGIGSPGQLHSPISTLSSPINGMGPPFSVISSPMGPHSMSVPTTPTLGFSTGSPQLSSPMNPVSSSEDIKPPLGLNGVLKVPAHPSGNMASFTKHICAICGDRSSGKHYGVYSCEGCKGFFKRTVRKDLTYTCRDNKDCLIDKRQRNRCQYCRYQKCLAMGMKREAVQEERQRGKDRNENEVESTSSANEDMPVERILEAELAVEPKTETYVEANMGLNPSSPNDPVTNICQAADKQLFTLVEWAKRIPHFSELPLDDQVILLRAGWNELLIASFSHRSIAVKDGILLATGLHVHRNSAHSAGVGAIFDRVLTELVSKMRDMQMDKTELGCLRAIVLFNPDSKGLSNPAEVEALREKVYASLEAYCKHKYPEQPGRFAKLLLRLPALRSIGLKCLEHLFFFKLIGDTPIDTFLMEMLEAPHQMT
Assay: PPARγ agonistic activity: luciferase reporter assay in PPARγ:RXRα:4ERPP/CHO-K1 cells
Assay type: cell-based
Conditions: CHO-K1, test compound 10^−6 M; luciferase activity of control compound X (1 μM) = 100%, non-administration group = 0%
assay.endpoint: activation at 1 µM (%)

compound	recorded.number
CCCc1c(Cc2ccc(-c3ccccc3-c3noc(=O)[nH]3)cc2)c(=O)n([C@H]2CC[C@@]3(CCCO3)CC2)c2ncnn12	35
CCCc1c(Cc2ccc(-c3ccccc3-c3noc(=O)[nH]3)cc2)c(=O)n([C@H]2CC[C@H](OCC3(C#N)CCC3)CC2)c2ncnn12	23
CCCCc1c(Cc2ccc(-c3ccccc3-c3noc(=O)[nH]3)cc2)c(=O)n(C2CCC(O)CC2)c2ncnn12 (stereo not shown)	26
CCCc1c(Cc2ccc(-c3ccccc3-c3noc(=O)[nH]3)cc2)c(=O)n([C@H]2CC[C@](C)(OCCO)CC2)c2ncnn12	30
CCCc1c(Cc2ccc(-c3ccccc3-c3noc(=O)[nH]3)cc2)c(=O)n([C@H]2CC[C@H](OCC(C)O)CC2)c2ccnn12 (relative stereo) [Example 419]	21
CCCc1c(Cc2ccc(-c3ccccc3-c3noc(=O)[nH]3)cc2F)c(=O)n([C@H]2CC[C@@H](O)CC2)c2ncnn12	22
CCCc1c(Cc2ccc(-c3ccccc3-c3noc(=O)[nH]3)cc2)c(=O)n([C@H]2CC[C@H](OCC(C)(C)O)CC2)c2nc(C)nn12	29
CCCc1c(Cc2ccc(-c3ccccc3-c3noc(=O)[nH]3)cc2F)c(=O)n(C2CCOCC2)c2ncnn12	18
CCCc1c(Cc2ccc(-c3ccccc3-c3noc(=O)[nH]3)cc2)c(=O)n([C@H]2CC[C@H](OCC(O)(CC)CC)CC2)c2ncnn12	21
CCCc1c(Cc2ccc(-c3ccccc3-c3noc(=O)[nH]3)cc2F)c(=O)n(C2CCOC2)c2nc(C)nn12 (stereo not shown)	18
CCCc1c(Cc2ccc(-c3ccccc3-c3noc(=O)[nH]3)cc2)c(=O)n(CC(C)(C)COC)c2nc(C)nn12	20
CCCc1c(Cc2ccc(-c3ccccc3-c3noc(=O)[nH]3)cc2)c(=O)n(C2CCC2)c2nc(C)nn12	16
CCCc1c(Cc2ccc(-c3ccccc3-c3noc(=O)[nH]3)cc2)c(=O)n(C2CCC(=NOC(C)C)CC2)c2ncnn12 (stereo not shown)	28
CCCc1c(Cc2ccc(-c3ccccc3-c3noc(=O)[nH]3)cc2F)c(=O)n([C@H]2CC[C@H](OCC(C)(C)O)CC2)c2ccnn12	30
CCCc1c(Cc2ccc(-c3ccccc3-c3noc(=O)[nH]3)cc2)c(=O)n(Cc2ccc(C(C)=O)cc2)c2ncnn12	49
CCCc1c(Cc2ccc(-c3ccccc3-c3noc(=O)[nH]3)cc2)c(=O)n(C2CCN(c3ccc(O)cc3)CC2)c2ncnn12	35
